- systemName: EGFR (Homo sapiens)
- Construct: Add 7 ug A431 cell lysate per well (EGFR source); endogenous in cells; host or cells: A431
- Sequence (P00533 25-1210): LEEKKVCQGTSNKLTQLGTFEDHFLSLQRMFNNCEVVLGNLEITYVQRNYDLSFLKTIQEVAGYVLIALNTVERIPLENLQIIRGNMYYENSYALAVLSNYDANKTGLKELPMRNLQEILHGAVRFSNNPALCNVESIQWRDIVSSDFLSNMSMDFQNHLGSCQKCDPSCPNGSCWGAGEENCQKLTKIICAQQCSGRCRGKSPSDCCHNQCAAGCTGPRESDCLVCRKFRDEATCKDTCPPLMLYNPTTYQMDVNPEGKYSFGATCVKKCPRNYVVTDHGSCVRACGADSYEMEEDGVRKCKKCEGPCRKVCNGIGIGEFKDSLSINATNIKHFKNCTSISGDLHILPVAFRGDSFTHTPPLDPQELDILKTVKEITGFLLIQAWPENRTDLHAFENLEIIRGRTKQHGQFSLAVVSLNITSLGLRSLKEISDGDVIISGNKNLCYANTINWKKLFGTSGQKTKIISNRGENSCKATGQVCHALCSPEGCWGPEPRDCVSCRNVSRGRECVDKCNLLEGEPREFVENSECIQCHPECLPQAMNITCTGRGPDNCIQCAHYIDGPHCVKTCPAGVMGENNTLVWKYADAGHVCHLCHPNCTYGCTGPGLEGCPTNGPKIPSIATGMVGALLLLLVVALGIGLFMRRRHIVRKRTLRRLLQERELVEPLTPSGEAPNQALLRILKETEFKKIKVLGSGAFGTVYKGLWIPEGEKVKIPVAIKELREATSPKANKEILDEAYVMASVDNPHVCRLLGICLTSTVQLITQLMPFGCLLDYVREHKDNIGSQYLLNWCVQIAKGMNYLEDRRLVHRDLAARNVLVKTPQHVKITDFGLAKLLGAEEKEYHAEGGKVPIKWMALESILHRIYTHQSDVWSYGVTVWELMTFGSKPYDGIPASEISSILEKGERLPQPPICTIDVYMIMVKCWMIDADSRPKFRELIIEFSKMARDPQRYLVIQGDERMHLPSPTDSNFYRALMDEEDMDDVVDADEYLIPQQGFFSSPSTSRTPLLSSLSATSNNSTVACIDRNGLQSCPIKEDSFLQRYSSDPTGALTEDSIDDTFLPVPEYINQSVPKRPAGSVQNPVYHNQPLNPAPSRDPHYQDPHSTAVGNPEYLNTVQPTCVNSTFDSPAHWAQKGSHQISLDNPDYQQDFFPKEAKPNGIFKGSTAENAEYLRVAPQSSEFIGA
- methodNotes: EGFR ELISA assay (in vitro kinase activity, EGFR captured from A431 cell lysate)
- Type: biochemical
- Parameters: concentration or dose not given beside the values
# Biochem EGFR %Inhibition >= 20% gives 1, anything below gives 0

>>> print(df.to_string())
                                   molecule           systemname  labelvalue
0  CNS(=O)(=O)c1ccc2c(c1)C(=Cc1ccc(Br)cc1)C(=O)N2 [10717/D08]  EGFR (Homo sapiens)           0
1  O=C1Nc2ccc(S(=O)(=O)Nc3ccc(C(F)(F)F)cc3)cc2C1=Cc1cccc(Br)c1 [10723/E10]  EGFR (Homo sapiens)           0
2  CC(C)(C)c1cc(C=C2C(=O)Nc3ccc(I)cc32)ccc1O [10721/B09]  EGFR (Homo sapiens)           1
3  COc1c(C(C)C)cc(C=C2C(=O)Nc3c(Br)cc(Br)cc32)cc1C(C)C [10732/A03]  EGFR (Homo sapiens)           0
4  CNS(=O)(=O)c1ccc2c(c1)C(=Cc1cc3ccccc3o1)C(=O)N2 [10724/D07]  EGFR (Homo sapiens)           1
5  O=C1Nc2ccc(CCCl)cc2C1=Cc1cc(C(F)(F)F)ccc1F [10728/G08]  EGFR (Homo sapiens)           0
6  CSc1ccc(C=C2C(=O)Nc3ccc(Br)c(C)c32)cc1 [10729/C04]  EGFR (Homo sapiens)           1
7  C=C(C)C1CC=C(C=C2C(=O)Nc3ccc(S(=O)(=O)NC)cc32)CC1 (stereo not drawn) [10731/D04]  EGFR (Homo sapiens)           0
8  CCc1ccc(C=C2C(=O)Nc3ccc(S(=O)(=O)N4CCOCC4)cc32)s1 [10726/F10]  EGFR (Homo sapiens)           0

====

- systemName: EGFR (Homo sapiens)
- Construct: Add 7 ug A431 cell lysate per well (EGFR source); endogenous in cells; host or cells: A431
- methodNotes: EGFR ELISA assay (in vitro kinase activity, EGFR captured from A431 cell lysate)
- Assay type: biochemical
- Design: concentration or dose not given beside the values
Reported Biochem EGFR %Inhibition values follow for various molecules
observable: Biochem EGFR %Inhibition (%)

In [3]: df
Out[3]:
                       smilesrepresentation                observable  endpointvalue
0    Cc1cc(C=C2C(=O)Nc3c(Br)cc(Br)cc32)oc1C  Biochem EGFR %Inhibition           56.4
1  Cc1ccc(C=C2C(=O)Nc3ccc(S(=O)(=O)N4CCOCC4)cc32)o1  Biochem EGFR %Inhibition          -49.6
2    COc1cccc(O)c1C=C1C(=O)Nc2ccc(CCCl)cc21  Biochem EGFR %Inhibition            2.4
3  O=C1Nc2c(Br)cc(Br)cc2C1=Cc1coc2ccccc2c1=O  Biochem EGFR %Inhibition           -3.7
4      CCOc1ccccc1C=C1C(=O)Nc2ccc(CCCl)cc21  Biochem EGFR %Inhibition           32.3
5  CNS(=O)(=O)c1ccc2c(c1)C(=Cc1cn(C)cc1C)C(=O)N2  Biochem EGFR %Inhibition          -24.4
6  Cc1cc(C=C2C(=O)Nc3c(Br)cc(Br)cc32)cc(C)c1O  Biochem EGFR %Inhibition           29.9
7  O=C1Nc2ccc(S(=O)(=O)N3CCOCC3)cc2C1=Cc1ccccc1O  Biochem EGFR %Inhibition          -14.2
8  O=C1Nc2ccc(S(=O)(=O)N3CCOCC3)cc2C1=Cc1ccc[nH]1  Biochem EGFR %Inhibition            1.8

====

- systemName: FLK-1 receptor (Mus musculus)
- Construct: expressed in transfected cells; host or cells: NIH3T3 C7#3
- Sequence (P35918 20-1345): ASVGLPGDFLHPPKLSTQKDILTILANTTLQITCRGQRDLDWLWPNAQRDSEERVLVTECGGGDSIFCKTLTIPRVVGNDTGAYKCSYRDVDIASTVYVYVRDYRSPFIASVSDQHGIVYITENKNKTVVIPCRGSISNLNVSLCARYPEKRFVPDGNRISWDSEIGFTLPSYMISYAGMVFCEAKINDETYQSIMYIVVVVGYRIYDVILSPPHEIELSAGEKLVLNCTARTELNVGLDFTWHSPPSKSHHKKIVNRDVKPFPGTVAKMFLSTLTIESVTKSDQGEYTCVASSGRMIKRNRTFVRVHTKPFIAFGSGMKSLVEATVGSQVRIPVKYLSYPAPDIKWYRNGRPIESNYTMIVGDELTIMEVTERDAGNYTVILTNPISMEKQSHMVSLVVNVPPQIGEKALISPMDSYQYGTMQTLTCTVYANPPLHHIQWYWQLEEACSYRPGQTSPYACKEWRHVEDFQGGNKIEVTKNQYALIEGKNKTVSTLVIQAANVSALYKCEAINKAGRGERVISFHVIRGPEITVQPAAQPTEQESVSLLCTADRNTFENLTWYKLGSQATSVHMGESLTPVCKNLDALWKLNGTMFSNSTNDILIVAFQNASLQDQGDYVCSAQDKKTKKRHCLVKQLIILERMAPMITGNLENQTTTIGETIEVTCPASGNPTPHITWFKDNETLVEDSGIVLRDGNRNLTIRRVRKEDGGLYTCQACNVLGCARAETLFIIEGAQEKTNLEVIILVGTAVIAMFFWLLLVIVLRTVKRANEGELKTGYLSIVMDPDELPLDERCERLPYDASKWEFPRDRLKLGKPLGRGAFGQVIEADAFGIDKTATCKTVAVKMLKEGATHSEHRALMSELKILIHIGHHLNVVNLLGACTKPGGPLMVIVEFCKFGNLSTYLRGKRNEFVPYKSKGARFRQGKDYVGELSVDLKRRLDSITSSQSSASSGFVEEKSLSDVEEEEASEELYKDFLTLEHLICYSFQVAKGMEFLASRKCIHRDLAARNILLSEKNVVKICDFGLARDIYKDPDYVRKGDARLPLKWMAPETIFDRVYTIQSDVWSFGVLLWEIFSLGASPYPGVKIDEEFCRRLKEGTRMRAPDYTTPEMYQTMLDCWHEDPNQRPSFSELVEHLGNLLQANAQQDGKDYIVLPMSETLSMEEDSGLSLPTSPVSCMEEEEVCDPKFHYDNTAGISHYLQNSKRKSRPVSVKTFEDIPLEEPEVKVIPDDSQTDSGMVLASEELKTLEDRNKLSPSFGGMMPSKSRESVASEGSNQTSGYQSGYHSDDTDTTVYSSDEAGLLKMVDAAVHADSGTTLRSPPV
- methodNotes: FLK-1 ELISA (kinase activity of the FLK-1 receptor in FLK-1/NIH3T3 cells, VEGF stimulated)
- Type: cell-based
- Experimental: An enzyme linked immunosorbent assay (ELISA) was conducted to measure the catalytic activity of the FLK-1 receptor and more specifically, the inhibition or activation of indolinone compounds on the catalytic activity of the FLK-1 receptor. Specifically, the following assay was conducted to measure catalytic activity of the FLK-1 receptor in FLK-1/NIH3T3 cells. […]
Exam item: assign Fulfilled to entries whose Fik Kinase %Inhibition is below 20% and Not fulfilled to entries at or above 20%. Note that a value of exactly 20% receives Not fulfilled.

>>> df
                                    molecule                     systemname     labelvalue
 0  COc1cc(C)cc(O)c1C=C1C(=O)Nc2ccc(CCCl)cc21  FLK-1 receptor (Mus musculus)  Not fulfilled
 1  CN(C)c1ccc(C=C2C(=O)Nc3c(Br)cc(Br)cc32)cc1  FLK-1 receptor (Mus musculus)      Fulfilled
 2  Cc1ccc(C=C2C(=O)Nc3ccc(S(=O)(=O)Nc4ccc(C(F)(F)F)cc4)cc32)s1  FLK-1 receptor (Mus musculus)      Fulfilled
 3  CNS(=O)(=O)c1ccc2c(c1)C(=CC(c1cccs1)C(F)(F)F)C(=O)N2 (centres unmarked)  FLK-1 receptor (Mus musculus)      Fulfilled
 4  CCc1cc(CC)c(C=C2C(=O)Nc3ccc(CCCl)cc32)[nH]1  FLK-1 receptor (Mus musculus)      Fulfilled
 5  CNS(=O)(=O)c1ccc2c(c1)C(=Cc1cccc(C#N)c1)C(=O)N2  FLK-1 receptor (Mus musculus)      Fulfilled
 6  CCc1ccc(C=C2C(=O)Nc3ccc(S(=O)(=O)Nc4ccc(C(F)(F)F)cc4)cc32)o1  FLK-1 receptor (Mus musculus)      Fulfilled
 7  O=C1Nc2ccc(CCCl)cc2C1=Cc1c[nH]c(=O)[nH]c1=O  FLK-1 receptor (Mus musculus)      Fulfilled
 8  CNS(=O)(=O)c1ccc2c(c1)C(=Cc1ccc(SC)cc1)C(=O)N2  FLK-1 receptor (Mus musculus)      Fulfilled
 9  CNS(=O)(=O)c1ccc2c(c1)C(=Cc1csc([N+](=O)[O-])c1)C(=O)N2  FLK-1 receptor (Mus musculus)      Fulfilled
10  COc1ccc(C=C2C(=O)Nc3ccc(CCCl)cc32)c(OC)c1OC  FLK-1 receptor (Mus musculus)  Not fulfilled
11  COc1c([N+](=O)[O-])cc(C=C2C(=O)Nc3ccc(Br)c(C)c32)cc1C(C)(C)C  FLK-1 receptor (Mus musculus)      Fulfilled
12  O=C1Nc2ccc(CCCl)cc2C1=Cc1coc2ccc([N+](=O)[O-])cc2c1=O  FLK-1 receptor (Mus musculus)  Not fulfilled
13  Cc1[nH]c(C=C2C(=O)Nc3ccc(I)cc32)c(Br)c1Br  FLK-1 receptor (Mus musculus)      Fulfilled
14  COc1c(C(C)C)cc(C=C2C(=O)Nc3c(Br)cc(Br)cc32)cc1C(C)C  FLK-1 receptor (Mus musculus)      Fulfilled
15  O=C1Nc2ccc(S(=O)(=O)N3CCOCC3)cc2C1=Cc1ccc(N2CCOCC2)cc1  FLK-1 receptor (Mus musculus)      Fulfilled
16  O=C1Nc2c(Br)cc(Br)cc2C1=Cc1cc(Br)cc(Br)c1O  FLK-1 receptor (Mus musculus)      Fulfilled
17  CNS(=O)(=O)c1ccc2c(c1)C(=Cc1c(F)cc(F)cc1F)C(=O)N2  FLK-1 receptor (Mus musculus)      Fulfilled
18  COc1c(I)cc(C=C2C(=O)Nc3ccc(S(=O)(=O)N4CCOCC4)cc32)cc1C(C)(C)C  FLK-1 receptor (Mus musculus)  Not fulfilled
19  CC(C)(C)c1cc(C=C2C(=O)Nc3ccc(S(=O)(=O)Nc4ccc(C(F)(F)F)cc4)cc32)cc(Cl)c1OCc1ccccc1  FLK-1 receptor (Mus musculus)      Fulfilled
20      O=C1Nc2ccc(I)cc2C1=Cc1coc2ccccc2c1=O  FLK-1 receptor (Mus musculus)      Fulfilled
21  CC(=O)Oc1ccc(C=C2C(=O)Nc3c(Br)cc(Br)cc32)cc1OC(C)=O  FLK-1 receptor (Mus musculus)      Fulfilled
22  CCOC(=O)CCc1c(C(=O)OCC)[nH]c(C=C2C(=O)Nc3c(Br)cc(Br)cc32)c1CC(=O)OCC  FLK-1 receptor (Mus musculus)      Fulfilled
23  CCN(CC)c1ccc(C=C2C(=O)Nc3ccc(S(=O)(=O)N4CCOCC4)cc32)c(O)c1  FLK-1 receptor (Mus musculus)      Fulfilled
24  Cc1ccsc1C=C1C(=O)Nc2ccc(S(=O)(=O)Nc3ccc(C(F)(F)F)cc3)cc21  FLK-1 receptor (Mus musculus)  Not fulfilled
25   COc1ccc(C=C2C(=O)Nc3c(Br)cc(Br)cc32)cc1  FLK-1 receptor (Mus musculus)      Fulfilled
26  CC(C)(C)c1cc(C=C2C(=O)Nc3ccc(S(=O)(=O)Nc4ccc(C(F)(F)F)cc4)cc32)ccc1O  FLK-1 receptor (Mus musculus)  Not fulfilled
27  COc1ccc(OC)c(C=C2C(=O)Nc3ccc(CCCl)cc32)c1  FLK-1 receptor (Mus musculus)      Fulfilled
28  COC1CC(C=C2C(=O)Nc3ccc(I)cc32)C(OC)O1 (centres unmarked)  FLK-1 receptor (Mus musculus)      Fulfilled
29  COc1c(C)cc(C=C2C(=O)Nc3ccc(CCCl)cc32)cc1C  FLK-1 receptor (Mus musculus)  Not fulfilled
30  CCOC(=O)c1cc(C=C2C(=O)Nc3ccc(S(=O)(=O)NC)cc32)oc1C  FLK-1 receptor (Mus musculus)      Fulfilled
31  O=C1Nc2ccc(S(=O)(=O)N3CCOCC3)cc2C1=Cc1cc2ccccc2nc1Cl  FLK-1 receptor (Mus musculus)      Fulfilled
32  COc1cc(Br)cc(C=C2C(=O)Nc3c(Br)cc(Br)cc32)c1O  FLK-1 receptor (Mus musculus)      Fulfilled
33  CNS(=O)(=O)c1ccc2c(c1)C(=Cc1cccs1)C(=O)N2  FLK-1 receptor (Mus musculus)      Fulfilled
34  COc1ccc(Br)c(C=C2C(=O)Nc3ccc(Br)c(C)c32)c1O  FLK-1 receptor (Mus musculus)      Fulfilled
